Molecular target: pooled human IgG (human IgG1,2,3 and 4)
Measured Enzyme Activity Endpoint Assay: IgG, listed per entry.
The answer is to be given in ng/µL; state only the numeric part.

PRT-332 (protein) MTITSVWTKGVTPPTPEDFRENNEDVLHAPYVANQGWYDITKTFDGKDNLLCGAATAGNMLHWWFDQNKEEIERYLKKHPEKQKIIFNNQEWFDVKAAIDTKDSQTNSKLFNYFRDKAFPGLSARQLGVFPDLVLDMFINGYYLNLPKTQSTDVNRPYQDKDKRGGIFDAVFTRGVQTTLLTARHDLKNKGLNEISDLIKQELTEGKALALSHTYANVRINHVINLWGADFDAEGNLIAIYVTDSDANASIGMKKYAVGVNANGKVAISAKKIEGDNIGAQVLGLFTLSTGQDIWQKLS = 0
PRT-108 (protein) MRNATEAYAKEVPHQITSVWTKGVTPPTPEQFRYNNEDVIHAPYTAHQGWYDITKTFDGKDNLLCGAATAGNMLHWWFDQNKTEIEAYLSKHPEKQKIIFNNQELFDLKAAIDTKDSQTNSQLFNYFRDKAFPNLSARQLGVMPDLVLDMFINGYYLNVFKTQSTDVNRPYQDKDKRGGIFDAVFTRGDQTTLLTARHDLKNKGLNDISTLIKQELTEGRALALSHTYANVSISHVINLWGADFNAEGNLEAIYVTDSDANASIGMKKYFVGINAAGHVAISAKKIEGENIGAQVLGLFTLSSGKDIWQKLS = 0
PRT-107 (protein) MRNATEAYAKEVPHQITSVWTKGVTPLTPEQFRYNNEDVIHAPYLANQGWYDITKAFDGKDNLLCGAATAGNMLHWWFDQNKTEIEAYLSKHPEKQKIIFNNQELFDLKAAIDTKDSQTNSQLFNYFRDKAFPNLSARQLGVMPDLVLDMFINGYYLNVFKTQSTDVNRPYQTKDKRGGIFDAVFTRGDQTTLLTARHDLKNKGLNDISTIIKQELTEGKALALSHTYANVSISHVINLWGADFNAEGNLEAIYVTDSDANASIGMKKYFVGVNAAGHVAISAKKIEGENIGAQVLGLFTLSSGKDIWQKLS = 0

Looking up PRT-177 (protein) MANQEIRYSEVTPYHIKTVWTDGVKPPTDFIKGEDVFHAPYKAHQGWYDITKAFDGGDDLLCGAATAGNMLHWWFDQNSTQIEAYLKKHPDKQKINFNGEQMFDVKEAIDTKNSQTNSELFNYFKEKAFPYLSTKHLGVFPDHVIDMFINGYRLSLTNHGPTPVKRQTKDPRGGIFDAVFGRGDSTKLLTSRHDFKEKTLNDISQLIKQELQSGKALGLSHTYANVRINHVINLWGADFDAEGNLEAIYVTDSDSNASIGMKKYFVGKNASGKVAISAKEIEDENIGAQVLGLFTLSTGKKSWEKTN , I see its Enzyme Activity Endpoint Assay: IgG listed as 131

Looking up PRT-308 (protein) MQITSVWTKGVTPLTPEQFRENNEDVIHAPYLAHQGWYDITKAFDGKDNLLCGAATAGNMLHWWFDQNKTEIEAYLSKHPEKQKIIFNNQELFDLKAAIDTKDSQTNSQLFNYFRDKAFPNLSARQLGVMPDLVLDMFINGYYLNVGKTQSTDVNRPYQDKDKRGGIFDAVFTRGDQTTLLTARHDLKNKGLNDISTIIKQELTEGRALALSHTYANVSISHVINLWGADFDAEGNLEAIYVTDSDANASIGMKKYFVGRNAHGHVAISAKKIEGENIGAQVLGLFTLSLGKDIWQKLS , I see its Enzyme Activity Endpoint Assay: IgG listed as 59

Where these numbers come from: patent US20250027068
